Just for reference, the Immune Epitope Database (IEDB) is where these values come from.

tested_target: HLA-B*15:01
assay_explanation: IEDB peptide-MHC binding, purified MHC/direct/fluorescence; filed as Kd, often an IC50 or EC50 that approximates it; bounds were set here for any values at or beyond the usual limits of such assays
condition_notes: source organism: Lake Victoria marburgvirus - Popp
attribute_measured: Kd

Exam item: Look at this sequence and give its reported Kd. KNYPASLHK
Marked response: ≥ 20 µM

###

tested_target: HLA-B*18:01
assay_explanation: IEDB peptide-MHC binding, purified MHC/competitive/fluorescence; filed as Kd, often an IC50 or EC50 that approximates it; bounds were set here for any values at or beyond the usual limits of such assays
condition_notes: source organism: Homo sapiens
Exercise: state measured Kd for each of the sequences provided.

Exam item: HLA-B*18:01 / Kd / FLQQRKPPL : value?
Marked response: ≥ 20 µM

Exam item: Entry MQDVFTFYV , system HLA-B*18:01: what Kd was measured?
Marked response: ≥ 20 µM

Exam item: Short answer please: Kd, HLA-B*18:01, entry YITDYSNDI
Marked response: ≥ 20 µM
